systemUnderTest: human PAH with the R408W mutation (Homo sapiens, UniProt P00439, R408W)
Construct: expressed in transfected cells
Sequence (P00439 whole entry R408W): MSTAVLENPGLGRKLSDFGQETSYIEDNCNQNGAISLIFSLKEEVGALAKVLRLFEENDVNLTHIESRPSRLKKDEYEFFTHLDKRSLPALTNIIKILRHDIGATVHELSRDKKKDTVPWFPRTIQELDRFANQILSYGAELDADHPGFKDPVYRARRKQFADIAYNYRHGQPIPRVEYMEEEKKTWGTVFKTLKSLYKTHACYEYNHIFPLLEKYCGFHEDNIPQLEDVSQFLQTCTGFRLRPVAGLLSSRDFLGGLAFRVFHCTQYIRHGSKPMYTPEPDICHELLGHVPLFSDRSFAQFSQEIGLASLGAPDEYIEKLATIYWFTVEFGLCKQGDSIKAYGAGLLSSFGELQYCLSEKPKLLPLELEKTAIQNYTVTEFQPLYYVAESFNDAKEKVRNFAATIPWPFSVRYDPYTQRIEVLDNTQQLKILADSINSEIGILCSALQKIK
testMethodNotes: Cell Based Phenylalanine Flux Assay;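 note: after compound treatment, cells received sepiapterin plus isotope-labelled Phenylalanine for 4 hours, then labelled Tyrosine in the medium was quantified, 10-point 2-fold dilution series run in duplicate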
runConditions: A375 cells expressing R408W PAH; 24 hrs with compound, then 20 µM sepiapterin and 800 µM 13C9,15N-Phenylalanine for 4 hours; 13C-Tyrosine by LC-MS; average where tested multiple times; read-out: AC50
recordedMetric: AC50

FC(F)c1cccn2nc(C3c4nc[nH]c4CCN3c3nnc(C4CC(F)(F)C4)o3)cc12 (stereo not drawn)	1 to 5 µM
Fc1cccc2cc(C3c4nc[nH]c4CCN3c3ncccn3)nn12 (stereo not drawn)	1 to 5 µM
Cc1c(C2c3nc[nH]c3CCN2C(=O)c2nnc(C(C)(C)C)o2)nn2ccccc12 (stereo not drawn)	1 to 5 µM
Cc1cccc2cc(C3c4nc[nH]c4CCN3c3ncc(N)cn3)nn12 (stereo not drawn)	1 to 5 µM
O=C(c1nnc(-c2cnn(C(F)(F)F)c2)o1)N1CCc2[nH]cnc2C1c1cc2c(OC(F)(F)F)cccn2n1 (stereo not drawn)	1 to 5 µM
O=C(c1nnc(-c2cnn(CC(F)F)c2)o1)N1CCc2[nH]cnc2C1c1cc2ccccn2n1 (stereo not drawn)	1 to 5 µM
COCc1nnc(C(=O)N2CCc3[nH]cnc3C2c2cc3ccccn3n2)o1 (stereo not drawn)	1 to 5 µM
Cc1nnc(C(=O)N2CCc3[nH]cnc3C2c2cc3ccccn3n2)s1 (stereo not drawn)	1 to 5 µM

Q: Any idea what AC50 was measured for COCc1ccc2c(C(=O)N3CCc4[nH]cnc4C3c3cc4cccc(Cl)n4n3)cnn2c1 (stereo not drawn) ?
A: 1 to 5 µM

Q: Another: Cc1cccc2cc(C3c4nc[nH]c4CCN3C(=O)c3nc(C(F)(F)F)nn3C)nn12 (stereo not drawn)
A: 1 to 5 µM

Q: Please give the result for Cc1ccn2nc(C3c4nc[nH]c4CCN3C(=O)c3nnc(C(C)(C)C)o3)cc2c1 (stereo not drawn) too.
A: 1 to 5 µM

Q: Now the same for CC(C)(C)c1nnc(N2CCc3[nH]cnc3C2c2cc3cccc(Cl)n3n2)o1 (stereo not drawn)
A: > 5 µM

Q: Now try c1cnc(-c2nnc(N3CCc4[nH]cnc4C3c3cc4ccccn4n3)o2)nc1 (stereo not drawn) .
A: 1 to 5 µM

Q: CN(C)C(=O)c1nnc(N2CCc3[nH]cnc3[C@H]2c2cc3c(C(F)(F)F)cccn3n2)o1 (single isomer, unassigned) , same question.
A: 1 to 5 µM

Q: Now try O=C(c1cnco1)N1CCc2[nH]cnc2[C@@H]1c1cc2ccccn2n1 (single isomer, unassigned) .
A: 1 to 5 µM

Sourced from patent US20230365592A1
